# measured_on: T1, human FAP (Homo sapiens, UniProt Q12884)
# T1 sequence (Q12884 1-760): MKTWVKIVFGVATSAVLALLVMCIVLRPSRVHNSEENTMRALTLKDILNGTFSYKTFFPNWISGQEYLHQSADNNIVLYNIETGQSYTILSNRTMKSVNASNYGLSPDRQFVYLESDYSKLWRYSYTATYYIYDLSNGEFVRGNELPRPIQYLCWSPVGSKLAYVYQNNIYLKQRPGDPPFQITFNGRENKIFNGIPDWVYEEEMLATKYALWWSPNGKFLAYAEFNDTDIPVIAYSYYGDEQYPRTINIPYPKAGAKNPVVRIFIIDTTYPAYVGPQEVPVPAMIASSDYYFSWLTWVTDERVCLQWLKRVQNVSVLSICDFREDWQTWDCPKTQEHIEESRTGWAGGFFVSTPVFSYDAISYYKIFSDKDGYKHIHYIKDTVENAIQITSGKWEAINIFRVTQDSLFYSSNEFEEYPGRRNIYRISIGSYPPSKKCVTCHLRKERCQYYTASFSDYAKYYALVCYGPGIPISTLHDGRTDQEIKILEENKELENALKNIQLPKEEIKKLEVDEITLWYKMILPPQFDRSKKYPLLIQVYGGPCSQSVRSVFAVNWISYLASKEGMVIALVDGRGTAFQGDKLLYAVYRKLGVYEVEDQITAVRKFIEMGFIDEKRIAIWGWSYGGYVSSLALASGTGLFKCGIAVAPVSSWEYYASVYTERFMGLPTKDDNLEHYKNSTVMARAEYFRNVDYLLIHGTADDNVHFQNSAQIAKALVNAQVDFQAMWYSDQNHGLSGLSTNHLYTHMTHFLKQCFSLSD
# experimental_details: BLI click reaction with Tz-R3B23 on TCO-VHHs bound to target, span (Example 7, Table 18)
# particulars: Experiment 1, click reaction with 50 nM Tz-R3B23 for 20 minutes, signal difference vs assay buffer
In plain terms, low Span, meaning strictly below 0.008, gives Met, and everything else gives Not met.

molecule	label_class
TCO-VHH6 (VHH, trans-cyclooctene (TCO) conjugated via TCO-NHS; site(s) and number not stated, also called TCO conjugated VHH6; VHH6 post conjugation) VHH: DVQLVESGGGLVQAGGSLRLSCAVSGSISSANSMGWYRQAPGKQRDVVAGLTTGGRSHYADSVKGRFTISRDNAKNTVYLQMNSLKAEDTAVYYCNLWPPVQGYWGQGTQVTVSS	Not met
VHH9: VHH, target FAP, SEQ ID NO 92 (protein) VHH: QVQLQESGGGLVQSGGSLRLSCVASGSISSINAMGWYRQAPGNKREWVAGITSGGSTNYADAVLGRFSIFRDNPKNTVYLQMNSLKPEDTAVYYCNTWPPSTFGSWGQGTQVTVSSAAAYPYDVPDYGSHHHHHH	Met
TCO-VHH8 (conjugate, cyclised or stapled) VHH: QVQLQESGGGTVQPGGSLRLSCAASGISVSIASMAWYRQAPGKQRELVAGIISGGSTNYADSVKGRFTISRDNAKKVVLLQMNSLKPEDTAVYYCNTYPPFVGPGATATWGQGTQVTVSSAAAYPYDVPDYGSHHHHHH	Not met
TCO-VHH9: TCO conjugated VHH9 (FAP binding) (conjugate, cyclised or stapled) VHH: QVQLQESGGGLVQSGGSLRLSCVASGSISSINAMGWYRQAPGNKREWVAGITSGGSTNYADAVLGRFSIFRDNPKNTVYLQMNSLKPEDTAVYYCNTWPPSTFGSWGQGTQVTVSSAAAYPYDVPDYGSHHHHHH	Met
VHH8: VHH, target FAP, SEQ ID NO 91 (protein) VHH: QVQLQESGGGTVQPGGSLRLSCAASGISVSIASMAWYRQAPGKQRELVAGIISGGSTNYADSVKGRFTISRDNAKKVVLLQMNSLKPEDTAVYYCNTYPPFVGPGATATWGQGTQVTVSSAAAYPYDVPDYGSHHHHHH	Not met

Next up:
Asked: State whether 0.008 exceeds Span recorded for VHH6: VHH, target FAP, SEQ ID NO 89 (protein) VHH: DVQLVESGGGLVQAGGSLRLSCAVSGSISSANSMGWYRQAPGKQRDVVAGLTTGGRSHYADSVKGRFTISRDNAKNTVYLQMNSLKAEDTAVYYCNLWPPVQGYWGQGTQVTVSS .
Given back: Met

Data provenance: patent US20250122304A1
